# Test system: HepG2
# Assay Details: relative viability EC50 (midpoint between 100% and the lowest measured viability); higher = less toxic
# Applied Conditions: 72 h
Recorded Endpoint: relative viability EC50

Sample records with relative viability EC50:
Look up relative viability EC50: `Cn1cnc([N+](=O)[O-])c1Sc1ncnc2[nH]cnc12`
1.46 µM

Look up relative viability EC50: `CC/C(=C(/c1ccc(/C=C/C(=O)O)cc1)c1ccc2[nH]ncc2c1)c1ccc(F)cc1Cl`
> 10 µM

Look up relative viability EC50: `Cc1cnc(NC(=O)Nc2cc(Br)c(C)cc2OC[C@@H]2CNCCO2)cn1`
0.764 µM

Look up relative viability EC50: `Cc1cc(Nc2ncc(Cl)c(Nc3ccccc3S(=O)(=O)C(C)C)n2)c(OC(C)C)cc1C1CCNCC1`
1.44 µM

Look up relative viability EC50: `Cc1cc(C)c(CNC(=O)c2cc(-c3ccc(CN4CCOCC4)cc3)cc3c2cnn3C2CCCC2)c(=O)[nH]1`
> 10 µM

Look up relative viability EC50: `C[C@H](N)[C@H](O)c1ccc(O)c(O)c1`
> 10 µM

Look up relative viability EC50: `Cc1[nH]c(=O)c(C#N)cc1-c1ccncc1`
> 10 µM

Look up relative viability EC50: `C[C@H](N)C(=O)N[C@@]1(C(=O)O)C[C@@H](Sc2nnc[nH]2)[C@H]2[C@H](C(=O)O)[C@H]21`
> 10 µM

// next entry
Look up relative viability EC50: COc1ccc2[nH]c(SCc3ncc(C)c(OC)c3C)nc2c1 [omeprazole-sulfide]
> 10 µM

====

# Tested on: U2OS
# Assay Details: cell viability relative to DMSO; higher = less toxic
# Applied Conditions: 72 h; 1000 nM
Listed here: items and their measured cell viability.
Field: numeric (%). Do not append units.

Look up cell viability: `CC(C)CN(C[C@@H](OP(=O)(O)O)[C@H](Cc1ccccc1)NC(=O)O[C@H]1CCOC1)S(=O)(=O)c1ccc(N)cc1`
94.2

Look up cell viability: `Cc1cc(N2CCCCC2)nc2ccccc12`
102

Look up cell viability: `C[C@H](CSC(=O)c1ccccc1)C(=O)N1C[C@@H](Sc2ccccc2)C[C@H]1C(=O)O`
95.1

Others:
Look up cell viability: `O=C(Nc1ccc(O)cc1)c1ccccc1O`
97.4

====

# Tested on: Caco-2
# Assay Details: cell viability relative to DMSO; higher = less toxic
# Applied Conditions: 72 h; 10 nM
Recorded Endpoint: cell viability (%)
Field: numeric (%). Do not append units.

Sample records with cell viability:
Look up cell viability: `COc1ccccc1S(=O)(=O)Nc1ccc2c(c1)CN(C)C(=O)N2`
102

Look up cell viability: `CCC[C@H](NC(=O)/C(C#N)=C/c1cccc(Br)n1)c1ccccc1`
103

Look up cell viability: CCC(=O)O[C@H](CC(=O)O)C[N+](C)(C)C [levocarnitine-propionate]
103

Look up cell viability: COc1ccc(Cl)cc1C(=O)NCCc1ccc(C(=O)O)cc1 [meglitinide]
102

Look up cell viability: Cc1cc(O)c(C(=O)N[C@@H](C(=O)N[C@@H]2C(=O)N3C(C(=O)O)=C(CSc4nnnn4C)CS[C@H]23)c2ccc(O)cc2)cn1 [cefpiramide]
106

// next entry
Look up cell viability: `COC(=O)C1=C(C)NC(C)=C(C(=O)OCCSc2ccccc2)[C@@H]1C`
99.4
